Listed here: items and their measured IC50.
Target Or System: Cytochrome P450 11B1, mitochondrial (Homo sapiens)
Sequence (P15538 whole entry): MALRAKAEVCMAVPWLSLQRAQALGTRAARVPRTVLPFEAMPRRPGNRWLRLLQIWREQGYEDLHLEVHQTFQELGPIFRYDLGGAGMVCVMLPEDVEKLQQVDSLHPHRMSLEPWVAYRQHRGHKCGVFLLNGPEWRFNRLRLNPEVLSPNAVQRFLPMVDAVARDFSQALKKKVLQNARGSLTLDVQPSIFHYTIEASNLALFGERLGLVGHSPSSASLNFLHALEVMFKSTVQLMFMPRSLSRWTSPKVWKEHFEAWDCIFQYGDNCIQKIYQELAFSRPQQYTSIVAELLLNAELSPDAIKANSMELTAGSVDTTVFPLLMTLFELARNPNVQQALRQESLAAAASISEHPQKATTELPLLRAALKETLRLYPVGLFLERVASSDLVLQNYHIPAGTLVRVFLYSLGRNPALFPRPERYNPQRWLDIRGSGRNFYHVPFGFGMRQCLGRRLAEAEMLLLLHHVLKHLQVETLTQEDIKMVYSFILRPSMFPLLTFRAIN
Test Details: Inhibition of human CYP11B1-8C7 expressed in chinese hamster V79 cells using 11-deoxycortisol as substrate preincubated for 1 hr followed by substrate addition measured for 3 hrs by HTRF assay

Test Smiles: CC1(C)CN(c2cncc(N3CCC4(CCC(=O)N4)CC3)n2)C1
Measured: 2190 nM
--
Test Smiles: CN1CCC2(CCN(c3cncc4ccccc34)CC2)C1=O
Measured: > 8000 nM
--
Test Smiles: c1ccc2c(N3CCC4(CCOC4)CC3)cncc2c1
Measured: 387 nM
--
Test Smiles: c1ccc2c(N3CCC4(CCNC4)CC3)cncc2c1
Measured: 1310 nM

QUERY: Reported IC50 for "c1ccc2c(N3CCC4(CCCC4)CC3)cncc2c1" : what is it?
RESULT: 1670 nM

----------
Catalogue of IC50 readings, one per entry.
Target Or System: Cytochrome P450 11B2, mitochondrial (Homo sapiens, UniProt P19099)
Sequence (P19099 whole entry): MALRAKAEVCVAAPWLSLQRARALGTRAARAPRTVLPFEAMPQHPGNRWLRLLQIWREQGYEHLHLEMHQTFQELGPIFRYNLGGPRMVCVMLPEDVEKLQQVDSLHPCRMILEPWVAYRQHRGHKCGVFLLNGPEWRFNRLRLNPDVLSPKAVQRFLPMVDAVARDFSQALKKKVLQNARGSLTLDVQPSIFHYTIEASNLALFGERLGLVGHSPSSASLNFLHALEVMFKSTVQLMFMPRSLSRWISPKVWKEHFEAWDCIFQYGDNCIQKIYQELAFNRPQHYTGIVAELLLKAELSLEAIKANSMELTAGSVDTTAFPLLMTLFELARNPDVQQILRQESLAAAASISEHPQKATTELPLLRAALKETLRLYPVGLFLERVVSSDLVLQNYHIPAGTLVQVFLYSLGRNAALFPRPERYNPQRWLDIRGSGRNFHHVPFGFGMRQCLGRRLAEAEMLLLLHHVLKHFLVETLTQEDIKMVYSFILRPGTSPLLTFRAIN
Test Details: Inhibition of human CYP11B2-CLE9 expressed in chinese hamster V79 cells using 11-deoxycorticosterone as substrate preincubated for 1 hr followed by substrate addition measured for 3 hrs by HTRF assay
Only the number, expressed in nM, is required.

Previously resolved entries follow.
Test Smiles: CN1CC2(CCN(c3cncc([C@](C)(O)C(F)(F)F)c3)CC2)CC1=O
IC50, nM: 32
--
Test Smiles: c1ccc2c(N3CCC4(CCCO4)CC3)cncc2c1
IC50, nM: 704

Could you now consider this next compound?
QUERY: Entry "CC1(C)CN(c2cncc(N3CCC4(CC3)CNC(=O)C4)n2)C1" has what IC50?
RESULT: 34

----------
Test Details: Intrinsic clearance in Sprague-Dawley rat liver microsomes at 0.3 mM preincubated for 10 mins followed by NADPH addition measured up to 45 mins by LC/MS analysis
Format: ADME
Experimental Parameters: read-out: CLH
compounds and their reported CLint scaled at 300 µM

Example entries begin here.
Test Smiles: CN1CC2(CCN(c3cncc([C@](C)(O)C(F)(F)F)c3)CC2)CC1=O
CLint scaled at 300 µM: < 20 mL/min/kg

Test Smiles: C[C@](O)(c1cncc(N2CCC3(CCOC3)CC2)c1)C(F)(F)F
CLint scaled at 300 µM: < 20 mL/min/kg

We next turn to a different compound, shown below.
QUERY: Give its CLint scaled at 300 µM value. Item: "c1ccc2c(N3CCC4(CCOC4)CC3)cncc2c1"
RESULT: < 20 mL/min/kg
